Values compiled from the RNAGym collection of RNA variant scans (doi:10.1073/pnas.2313332121).

B1: TPR t1 (parent)
chain: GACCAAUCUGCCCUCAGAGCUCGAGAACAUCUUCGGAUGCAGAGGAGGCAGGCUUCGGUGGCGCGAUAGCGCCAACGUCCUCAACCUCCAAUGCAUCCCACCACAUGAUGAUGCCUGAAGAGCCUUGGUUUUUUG

Variants of: B1
Assay: polymerase ribozyme fitness, log enrichment relative to wild type (log ratio); higher = more active; in vitro selection for triplet polymerase activity
# label = yes (1) if polymerase ribozyme fitness (log ratio) >= -2 else no (0)

Past entries and their recorded results:
GACCAAUGUGCCCUCAGAGCUCGAGAACAUCUUCGGAUGCAGAGGAGGCAGGCUUCGGUGGCGCGAUAGCGCCAACGUCCUCAACCUCCAAUGCAUCCCACCACAUGAUGAUGCCUAAAGAGCCUUGGUUUUUUG [C8G G117A]; yes (1)
GACCAAUCUGCCCUCACAGCUCGAGAACAUCUUCAGAUGCAGAGGAGGCAGGCUUCGGUGGCGCGAUAGCGCCAACGUCCUCAACCUCCAAUGCAUCCCACCACAUGAUGAUGCCUGAAGAGGCUUGUUUUUUUG [G17C G35A C123G G128U]; no (0)
GACCAAUCUGCCCUCAGAGCUCGAGAACAUCUUCGGAUGCAGAGGAACCAGUCUUCGGUGGCGCGAUAGCGCCAACGUUCUCAACCUCCAAUGCAUCCCACCACAUGAUGAUGCCUGAAGAGCCUUGGUUUUUUG [G47A G48C G52U C79U]; no (0)

Say whether GACCAAUCUGCCCUCAGAGCUCGAGACCAUCUUCGGAUGCAGAGGAGGCAGGCUUCGGUGGCGCGAUAGCGACAACGUUCUCAACCUCCAAUGCAUCCCACCACAUGAUGAUUCCUGAAGAGCCUUGGUUUUUUG [A27C C72A C79U G113U] shows polymerase ribozyme fitness (log ratio) of -2 or more.
no (0)

In plain terms: is recorded polymerase ribozyme fitness (log ratio) at least -2 for GACCAAUCUGCCCUCAGAGCUCGAGAACAUCUUCGGAUGCAGAGGAGGCAGGCUUCGGUGGCGCGAUAGCGCCAACGUCCUCAACCUCCAAUGCAUCCCACCACAUGAUGAUGUCUGAAGAGCCUAGGUUUUUUG [C114U U126A] ?
no (0)
